Data origin: patent US8361968B2

# TARGET_DESC: hOT7T175 (Homo sapiens, UniProt Q969F8, L364H)
# Sequence (Q969F8 whole entry L364H): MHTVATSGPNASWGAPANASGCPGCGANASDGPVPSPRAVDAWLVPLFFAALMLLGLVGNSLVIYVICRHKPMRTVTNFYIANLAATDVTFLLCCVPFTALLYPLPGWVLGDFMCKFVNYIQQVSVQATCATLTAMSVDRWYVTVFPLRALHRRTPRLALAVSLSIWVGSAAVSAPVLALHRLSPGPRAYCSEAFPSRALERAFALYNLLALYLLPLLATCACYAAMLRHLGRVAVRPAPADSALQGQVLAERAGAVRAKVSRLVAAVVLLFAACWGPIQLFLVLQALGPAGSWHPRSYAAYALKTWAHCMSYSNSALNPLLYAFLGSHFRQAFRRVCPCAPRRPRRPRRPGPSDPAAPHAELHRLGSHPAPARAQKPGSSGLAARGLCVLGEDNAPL
# ASSAY_REMARKS: hOT7T175 receptor binding activity: binding inhibition of Cy-5-labeled metastin (40-54) on hOT7T175-expressed CHO cells
# Protocol: Assay for hOT7T175 Receptor Binding Activity h0T7T175-Expressed CHO cells were cultured in MEM-cc medium (nucleic acid-free) containing 10% dialyzed serum. The medium was removed and the adherent cells were washed with PBS. Then, PBS containing 5 mM EDTA was added and the cells were scraped from a flask with a cell scraper. […]
Square brackets hold non-standard residues; d marks the D form. Peptide text beside a SMILES is read from it. * marks the point of attachment. Arg(Me) = CNC(=N)NCCC[C@H](N)C(=O)O; Bta = N[C@@H](Cc1csc2ccccc12)C(=O)O; Hydrocinnamoyl = O=C(CCc1ccccc1)*; d4Pal = N[C@H](Cc1ccncc1)C(=O)O; azaGly = NNC(=O)O
In this section, each of the compounds is paired with its reported IC50.

COMPOUND	IC50 [nM]
CC(C)C[C@H](NC(=O)CNC(=O)[C@H](Cc1ccccc1)NC(=O)[C@H](CO)NC(=O)[C@H](CC(N)=O)NC(=O)[C@H](Cc1c[nH]c2ccccc12)NC(=O)[C@H](CC(N)=O)NC(=O)[C@@H](N)Cc1ccc(O)cc1)C(=O)N[C@@H](CCCNC(=N)N)C(=O)N[C@@H](Cc1csc2ccccc12)C(N)=O [Compound No. 189] (H-YNWNSFGLR[Bta]-NH2; N-terminus assumed)	230
CNC(N)=NCCC[C@H](NC(=O)[C@H](CC(C)C)NC(=O)NNC(=O)[C@H](Cc1ccccc1)NC(=O)[C@H](CO)NC(=O)[C@H](CC(N)=O)NC(=O)[C@@H](Cc1ccncc1)NC(=O)[C@H](CC(N)=O)NC(=O)[C@H](N)Cc1ccc(O)cc1)C(=O)N[C@@H](Cc1ccccc1)C(N)=O [Compound No. 302] (H-[dY]N[d4Pal]NSF[azaGly]L[Arg(Me)]F-NH2)	7.7
CNC(=N)NCCC[C@H](NC(=O)[C@H](CC(C)C)NC(=O)NNC(=O)[C@H](Cc1ccccc1)NC(=O)[C@H](CO)NC(=O)[C@H](CC(N)=O)NC(=O)CCc1ccccc1)C(=O)N[C@@H](Cc1ccccc1)C(N)=O [Compound No. 269] (Hydrocinnamoyl-NSF[azaGly]L[Arg(Me)]F-NH2)	470
